- assay_procedure: yeast display, Sf9 membrane polyspecificity reagent, FACS + sequencing; frameworks hold sequencing errors
quantity_measured: polyreactivity (PSR sort gate)

Solved entries:
seq_string	polyreactivity (PSR sort gate)
QVQLVESGAGLVQAGGSLSLSCAASGSIFGYYTMGWYRQAPGKERELVAAISRSGTSTFYADSVKGRFTISRDNAKNTVYLQMNSLKQEDTAVYYCNAVGSGYRSWYDYWGQGTKVTVSS	high polyreactivity
QVQLVESGGGLVQAGGSLRLSCAASGITFYEYDMGWYRQAPGKERELVAAITSRGGSTYYADSVKGRFTISRDNAKNTVYLQMNSLKPEDTAVYYCNAVRGWLYVFSYPYWDDEYWGQGTQVTVSS	high polyreactivity
QVQLVESGGGLVQAGGSLRLSCSASGRIFWDYAMGRYRQAPGKERELVASSSTDGSTYYADSVKGRFTISRDNANNTFYLQMNSLKPEDTAVYYCAARGYRGRMGYWGQGTQVTVSS	low polyreactivity
QVQLVESGGGLVQAGGSLRLSCAASGSIFTNNAMGWYRQAPGKERELVAGINISGDSTYYADSVKGRFTISRDNAKNTVYLQMNSLKPEDTAVYYCAAGDGYAGIYDYWGQGTQVTVSS	low polyreactivity
QVQLVESGGGLVQAGGSLRLSCAASGRTFSDYAMGWYRQAPAKERELVAAISKSGGRTYYADSVKGRFTISRDNAKNTVYLQMNSLKPEDTAVYYCAADPLTELAFYSWGQGTQVTVSS	high polyreactivity
QGQRVESGGGLVQAGGSLRLSCAASGRIFTFYAMGWYRPAPGKERELVAAITWGDGSTYYADSVKGRFTISRDNAKNTVYLQMNSLKPEDTAVYYCNKTYIDTTVYVVIMDYWGQGTQVTVSS	low polyreactivity
QVQLVESGGGLVQAGGSLRLSCAASGFTFYRNAMGWSRQAPGKERELVAAISRGGRTYYADSVKGRFTISRDNAKNTVYLQMNSLKPEDTAVYYCAVGYSGYGSSMDYWGQGTQVTVSS	high polyreactivity
QVQLVESGGRLVQAGGSLRLSCAASGITFGNAMGWYRQAPGKERELVAGITFSSGSTYYADSVKGRFTISRDNAKNTVYLLMNSLKPEDTAVYYCATDSSKHPYSPTLLKFDYWGQGTQVTVSS	low polyreactivity
QVQLVESGGGLVQAGGSLRLSCAASGRIFSNYAMGWYRHAPGKEREFVAAISGSGGITYYADSVKGRFTISRDNAKNTFYLQMNSLKPEDTAVYYCARRLHYVPLISYNYWGQGTQVTVSS	low polyreactivity
QVQLVESGGGLVQAGGSLRLSCAASGSTFFKYDMGWYRQAPGKDRELVAVITWSGGTTFYADSVKGRFTFSRDNAKNTVYLQMNSLKPEDTAVYYGAADYYGYRYDYWGQGTQVTVSS	low polyreactivity

Working through the 3 sequences below one at a time, give polyreactivity (PSR sort gate) for each.
1. QVQLVESGGGLVQAGGSLRLSCAASGIIFTDYAMGWYRQAPGKERELVAAISSGGGSTYYADSVKGRFTISRDNAKNTVYLQMNSLKPEDTAVYYCAAEGYLISGAGDYLYDYYWGQGTQVTVSS
2. QVQLVESGGGLVQAGGSLRLSCAASGSTFSRNAMGWYRQAPGKERELVAAITSGGRTYYADSVKGRFTISRDNAKNTVYLQMNSLKPEDTAVYYCAAVHRYPIHYDYWGQGTQVTVSS
3. QVQLVESGGGLVQAGGSLRLSCAASGRIFTNYAMGWYRQAPGKERELVAAINWDGGSTYYADSVKGRFTISRDNAKNTVYLQMNSLKPVDTAVYYCAAQGGLSEYDYWGQGTQVTVSS

Response line:
["high polyreactivity", "low polyreactivity", "low polyreactivity"]

FYI, the data here is from the nanobody polyreactivity screen of Harvey et al. (2022).
